Numbers sourced from patent US20250197387A1.

Assignment: determine reported DC50 for the given compounds.
ASSAY_SYSTEM: BCL-XL (Homo sapiens, UniProt Q07817)
Construct: endogenous in cells; host or cells: MOLT-4
Sequence (Q07817 whole entry): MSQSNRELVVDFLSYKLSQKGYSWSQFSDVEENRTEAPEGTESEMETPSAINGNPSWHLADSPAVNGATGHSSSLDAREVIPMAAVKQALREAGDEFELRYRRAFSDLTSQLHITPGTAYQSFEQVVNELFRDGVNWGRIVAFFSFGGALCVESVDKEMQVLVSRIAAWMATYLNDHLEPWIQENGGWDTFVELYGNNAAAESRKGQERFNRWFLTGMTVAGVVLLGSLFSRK
ASSAY_PROCEDURE: Bcl-xL ELISA degradation in MOLT-4 cells, 6 h
Format: cell-based
SETUP_CONDITIONS: read-out: Bcl-xL ELISA in MOLT-4 degradation 6 h: Mean external-Abs DC50
Description: The letter codes for BCL-XL DC50 include: A (<0.01 μM); B (0.01-0.1 μM); C (>[…]); D (>0.5-1.0 μM); and E (>1.0 μM). The letter codes for Dmax % include A (>75%); B (50 to 75%); C (<50%).

Entry "Cc1ncsc1-c1ccc([C@H](C)NC(=O)[C@@H]2C[C@@H](O)CN2C(=O)[C@@H](NC(=O)C2CCN(c3ccc(S(=O)(=O)NC(=O)c4nc(N5CCc6cccc(C(=O)Nc7nc8ccccc8s7)c6C5)ccc4-c4ccnc(N(C)C(C)C)c4C)cc3)CC2)C(C)(C)C)cc1" : DC50 on BCL-XL (Homo sapiens, UniProt Q07817) = 0.01 to 0.1 µM

Entry "Cc1ncsc1-c1ccc([C@H](C)NC(=O)[C@@H]2C[C@@H](O)CN2C(=O)[C@@H](NC(=O)CCCCCS(=O)(=O)NC(=O)c2nc(N3CCc4cccc(C(=O)Nc5nc6cccnc6s5)c4C3)ccc2-c2cnn(CC3CCCCC3)c2C)C(C)(C)C)cc1" : DC50 on BCL-XL (Homo sapiens, UniProt Q07817) = 0.01 to 0.1 µM

Entry "Cc1ncsc1-c1ccc([C@H](C)NC(=O)[C@@H]2C[C@@H](O)CN2C(=O)[C@@H](NC(=O)C2CCN(c3ncc(S(=O)(=O)NC(=O)c4nc(N5CCc6cccc(C(=O)Nc7nc8ccccc8s7)c6C5)ccc4-c4cnn(CC5CCCCC5)c4C)cn3)CC2)C(C)(C)C)cc1" : DC50 on BCL-XL (Homo sapiens, UniProt Q07817) = 0.01 to 0.1 µM

Entry "Cc1ncsc1-c1ccc([C@H](C)NC(=O)[C@@H]2C[C@@H](O)CN2C(=O)[C@@H](NC(=O)C2CCN(c3ccc(S(=O)(=O)NC(=O)c4nc(N5CCc6cccc(C(=O)Nc7nc8ccccc8s7)c6C5)ccc4-c4cnn(CC5(CCC(=O)O)CCCCC5)c4C)cc3)CC2)C(C)(C)C)cc1" : DC50 on BCL-XL (Homo sapiens, UniProt Q07817) = 0.1 to 0.5 µM

Entry "C#Cc1ccc(CNC(=O)[C@@H]2C[C@@H](O)CN2C(=O)[C@@H](NC(=O)C2CCN(c3ccc(S(=O)(=O)NC(=O)c4nc(N5CCc6cccc(C(=O)Nc7nc8ccccc8s7)c6C5)ccc4-c4cnn(CC5CCCCC5)c4C)cc3)CC2)C(C)(C)C)c(OC)c1" : DC50 on BCL-XL (Homo sapiens, UniProt Q07817) = < 0.01 µM

Entry "Cc1ncsc1-c1ccc([C@H](C)NC(=O)[C@@H]2C[C@@H](O)CN2C(=O)[C@@H](NC(=O)CCc2ccc(S(=O)(=O)NC(=O)c3nc(N4CCc5cccc(C(=O)Nc6nc7ccccc7s6)c5C4)ccc3-c3cnn(CC4CCCCC4)c3C)cc2)C(C)(C)C)cc1" : DC50 on BCL-XL (Homo sapiens, UniProt Q07817) = 0.01 to 0.1 µM

Entry "C#Cc1ccc([C@H](C)NC(=O)[C@@H]2C[C@@H](O)CN2C(=O)[C@@H](NC(=O)C2CCN(c3ccc(S(=O)(=O)NC(=O)c4nc(N5CCc6cccc(C(=O)Nc7nc8ccccc8s7)c6C5)ccc4-c4cnn(CC5CCCCC5)c4C)cc3)CC2)C(C)(C)C)cc1" : DC50 on BCL-XL (Homo sapiens, UniProt Q07817) = < 0.01 µM

Entry "Cc1ncsc1-c1ccc(CNC(=O)[C@@H]2C[C@@H](O)CN2C(=O)[C@@H](NC(=O)CCc2ccc(S(=O)(=O)NC(=O)c3nc(N4CCc5cccc(C(=O)Nc6nc7ccccc7s6)c5C4)ccc3-c3cnn(CC4CCCCC4)c3C)cn2)C(C)(C)C)cc1" : DC50 on BCL-XL (Homo sapiens, UniProt Q07817) = 0.1 to 0.5 µM

---

ASSAY_SYSTEM: BCL-XL (Homo sapiens)
Construct: endogenous in cells; host or cells: MOLT-4
ASSAY_PROCEDURE: BCL-XL degradation assay, western blot in MOLT-4 cells, 16 h
Type: cell-based
SETUP_CONDITIONS: western blot, MOLT-4 cells, 16 h; read-out: Bcl-xL WB in MOLT-4 degradation 16 h: Average Dmax %
Assignment: determine reported Dmax for the given compounds.

The compound Cc1ncsc1-c1ccc(CNC(=O)[C@@H]2C[C@@H](O)CN2C(=O)[C@@H](NC(=O)C2(F)CC2)C(C)(C)C)c(O[C@H]2CC[C@H](N3CCN(CC[C@H](CSc4ccccc4)Nc4ccc(S(=O)(=O)NC(=O)c5ccc(N6CCN(CC7=C(c8ccc(Cl)cc8)CCC(C)(C)C7)CC6)cc5)cc4S(=O)(=O)C(F)(F)F)CC3)CC2)c1 (single isomer, unassigned) showed Dmax equal to < 50%

The compound Cc1ncsc1-c1ccc(CNC(=O)[C@@H]2CC(O)CN2C(=O)[C@@H](NC(=O)C2(F)CC2)C(C)(C)C)c(OCCCCCCCCS(=O)(=O)NC(=O)c2nc(N3CCc4cccc(C(=O)Nc5nc6ccccc6s5)c4C3)ccc2-c2cnn(CC34CC5CC(CC(C5)C3)C4)c2C)c1 (stereo partly shown) showed Dmax equal to > 75%

The compound "Cc1ncsc1-c1ccc([C@H](C)NC(=O)[C@@H]2C[C@@H](O)CN2C(=O)[C@@H](NC(=O)CCCCCC(=O)N2CCN(CC[C@@H](CSc3ccccc3)Nc3ccc(S(=O)(=O)NC(=O)c4ccc(N5CCC(C)(C)CC5)cc4)cc3S(=O)(=O)C(F)(F)F)CC2)C(C)(C)C)cc1" showed Dmax equal to < 50%

The compound "Cc1ncsc1-c1ccc([C@H](C)NC(=O)[C@@H]2C[C@@H](O)CN2C(=O)[C@@H](NC(=O)CCCCCCN(C)C(=O)c2nc(N3CCc4cccc(C(=O)Nc5nc6ccccc6s5)c4C3)ccc2-c2cnn(CC3CCCCC3)c2C)C(C)(C)C)cc1" showed Dmax equal to > 75%

The compound "Cc1ncsc1-c1ccc(CNC(=O)[C@@H]2C[C@@H](O)CN2C(=O)[C@@H](NC(=O)C2(C#N)CC2)C(C)(C)C)c(OCC(=O)N2CCN(CC[C@H](CSc3ccccc3)Nc3ccc(S(=O)(=O)NC(=O)c4ccc(N5CCN(CC6=C(c7ccc(Cl)cc7)CCC(C)(C)C6)CC5)cc4)cc3S(=O)(=O)C(F)(F)F)CC2)c1" showed Dmax equal to > 75%

The compound "Cc1ncsc1-c1ccc([C@H](C)NC(=O)[C@@H]2C[C@@H](O)CN2C(=O)[C@@H](NC(=O)CCCCCS(=O)(=O)NC(=O)c2ccc(N3CCN(CC4=C(c5ccc(Cl)cc5)CCC(C)(C)C4)CC3)cc2)C(C)(C)C)cc1" showed Dmax equal to < 50%

The compound "Cc1ncsc1-c1ccc([C@H](C)NC(=O)[C@@H]2C[C@@H](O)CN2C(=O)[C@@H](NC(=O)CCCCCCCCC(=O)N2CCN(CC[C@H](CSc3ccccc3)Nc3ccc(S(=O)(=O)NC(=O)c4ccc(N5CCN(CC6=C(c7ccc(Cl)cc7)CCC(C)(C)C6)CC5)cc4)cc3S(=O)(=O)C(F)(F)F)CC2)C(C)(C)C)cc1" showed Dmax equal to > 75%

---

Assignment: determine reported Dmax for the given compounds.
ASSAY_SYSTEM: BCL-XL (Homo sapiens)
Construct: endogenous in cells; host or cells: MOLT-4
ASSAY_PROCEDURE: Bcl-xL ELISA degradation in MOLT-4 cells, 6 h
Type: cell-based

Entry "Cc1ncsc1-c1ccc([C@H](C)NC(=O)[C@@H]2C[C@@H](O)CN2C(=O)[C@@H](NC(=O)CCCCCS(=O)(=O)NC(=O)c2nc(N3CCc4cccc(C(=O)Nc5nc6c(F)cccc6s5)c4C3)ccc2-c2cnn(CC3CCCCC3)c2C)C(C)(C)C)cc1" : Dmax on BCL-XL (Homo sapiens) = > 75%

Entry "Cc1cc(N2CCC(C(=O)N[C@H](C(=O)N3C[C@H](O)C[C@H]3C(=O)N[C@@H](C)c3ccc(-c4scnc4C)cc3)C(C)(C)C)CC2)ccc1S(=O)(=O)NC(=O)c1nc(N2CCc3cccc(C(=O)Nc4nc5ccccc5s4)c3C2)ccc1-c1cnn(CC2CCCCC2)c1C" : Dmax on BCL-XL (Homo sapiens) = > 75%

Entry "Cc1ncsc1-c1ccc([C@H](C)NC(=O)[C@@H]2C[C@@H](O)CN2C(=O)[C@@H](c2cc(N3CC(N4CCC(NC(=O)c5nc(N6CCc7cccc(C(=O)Nc8nc9ccccc9s8)c7C6)ccc5-c5cnn(CC6CCCCC6)c5C)CC4)C3)no2)C(C)C)cc1" : Dmax on BCL-XL (Homo sapiens) = 50 to 75%

Entry "Cc1cc([C@@H](C(=O)N2C[C@H](O)C[C@H]2C(=O)NCc2ccc(-c3scnc3C)cc2OCCCCCCN(C)C(=O)c2nc(N3CCc4cccc(C(=O)Nc5nc6ccccc6s5)c4C3)ccc2-c2cnn(CC3CCCCC3)c2C)C(C)C)on1" : Dmax on BCL-XL (Homo sapiens) = 50 to 75%
